Reference for the values: PubChem BioAssay (NCI)

system: OVCAR-5 ovarian; assay: NCI tumour cell line growth inhibition, 48 h

| compound | target under test | qualifier symbol | TGI [µM] |
| --- | --- | --- | --- |
| C#CCNCCN1C(=O)c2ccc3c4c(ccc(c24)C1=O)C(=O)N(CCNCC#C)C3=O | OVCAR-5 ovarian | = | 18.3 |
| CCCCCCCCC/C=C1\CCC(CN(C)C)C1=O (stereo not given) | OVCAR-5 ovarian | = | 28 |
| COc1ccc(NC(=S)c2ccoc2C)cc1CC(=O)OC(C)C | OVCAR-5 ovarian | > | 100 |
| Nc1ncnc2c1c(-c1ccc(Oc3ccccc3)cc1)nn2C[C@@H]1SSC[C@H]1O | OVCAR-5 ovarian | = | 26.6 |
| CCc1ccc2c(c1)C(=O)c1c-2n(CCCN=[N+]=[N-])c(=O)c2cc(OC)c(OC)cc12 | OVCAR-5 ovarian | > | 100 |
| CC1(C)N=C(C2CCCN2C(=O)OCc2ccccc2)OC1=O (stereo not given) | OVCAR-5 ovarian | > | 100 |
| O=S(=O)(c1cccc2c(I)cccc12)N1CCCNCC1 | OVCAR-5 ovarian | = | 33.5 |
| CN(C)c1ccc(C=C2C(=O)NC(=S)NC2=O)c2ccccc12 | OVCAR-5 ovarian | > | 100 |
| C=C1c2ccoc2C[C@H]2[C@H]1CC[C@@]1(O)[C@@](C)(C(=O)OC)CCC[C@]21C | OVCAR-5 ovarian | > | 100 |
| CC1(C)[C@@H]2C[C@H]1c1cnc(-c3ccccn3)cc1C2CCCCC[C@@H]1c2cc(-c3ccccn3)ncc2[C@@H]2C[C@H]1C2(C)C (stereo not given in full) | OVCAR-5 ovarian | > | 100 |

----------
tested on: ACHN renal; assay: NCI tumour cell line growth inhibition, 48 h
Each entry below lists one item and its recorded TGI value.

| compound | qualifier symbol | TGI [µM] |
| --- | --- | --- |
| Cc1ccc(Nc2nc3c(=O)n(C)c(=O)n(C)c3nc2Nc2ccc(C)cc2)cc1 | = | 11.8 |
| O=S(=O)(c1cccc2c(I)cccc12)N1CCCNCC1 | = | 33.6 |
| O=C(N/N=C/c1ccccc1)c1cccc2nc3ccccc3nc12 | > | 100 |
| COc1ccc(C2=C(c3ccc(OC)c(OC)c3)C(=O)N3CCCC3C2)cc1 (stereo not given) | > | 100 |
| Cc1cc(S(=O)(=O)/N=C(\[N-]S(=O)(=O)c2cc(Cl)sc2Cl)[n+]2ccc(N(C)C)cc2)c(S)cc1Cl | > | 100 |

----------
tested on: MDA-MB-231 breast; assay: NCI tumour cell line growth inhibition, 48 h
Item-by-item account of TGI

| compound | target under test | qualifier symbol | TGI / µM |
| --- | --- | --- | --- |
| Cc1ccc(N/C(SCc2ccccc2)=C(\C(Cl)=C(Cl)Cl)[N+](=O)[O-])c(C)c1 | MDA-MB-231 breast | = | 34.8 |
| CNc1nc(C(N)=O)c(N)s1 | MDA-MB-231 breast | > | 100 |
| Nc1ncnc2c1c(-c1ccc(Oc3ccccc3)cc1)nn2C[C@@H]1SSC[C@H]1O | MDA-MB-231 breast | = | 5.45 |
| OCCn1cnc2c(SCc3ccccc3)ncnc21 | MDA-MB-231 breast | > | 100 |
| ClCCCCCc1c2nc(c(CCCCCCl)c3ccc([nH]3)c(CCCCCCl)c3ccc([nH]3)c(CCCCCCl)c3nc1C=C3)C=C2 | MDA-MB-231 breast | > | 100 |
| Cc1ccc(C(=O)NC2CCC2)cc1-c1ccc(C(=O)NCC2CC2)cc1 | MDA-MB-231 breast | > | 25 |
| O=C1CC(NCc2ccccc2)c2c(Cl)sc(Cl)c21 (stereo unspecified) | MDA-MB-231 breast | = | 66.4 |
| NCCN.O=C([O-])CN1CCOCC1.[OH-].[Pt+4] | MDA-MB-231 breast | > | 100 |
| Nc1ccccc1C#C/C=C\C#Cc1cccc(O)c1 | MDA-MB-231 breast | = | 14.1 |
| COc1cccc(/C=C2\S/C(=N/Nc3nc(-c4ccc([N+](=O)[O-])cc4)cs3)NC2=O)c1O | MDA-MB-231 breast | = | 41.7 |
| O=C(N/N=C/c1ccccc1)c1cccc2nc3ccccc3nc12 | MDA-MB-231 breast | > | 100 |
